Measured values drawn from PubChem BioAssay AID1159580 for this set.

The entries below are paired with their reported normalized growth.
# PROCEDURE SUMMARY: chemical genetic growth profiling, strain panel (AID 1159580);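 further: tested at 20 µM; growth read once vehicle control cultures reached saturation at 30 °C; 1 = growth at the plate median or of vehicle wells; lower values mean less growth of the strain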
# MEASUREMENT CONDITIONS: S. cerevisiae deletion strains, growth OD, locus YNL175C, strain NOP13, stronger effect = lower value
The whole screen tested about 5,500 compounds, of which about 2,000 (36%) were called active. Not shown: some 18% with an inconclusive outcome. This is one part of the list.
Write the value as a bare number.

>>> df
                                  compound      property_name  observed_result
0  NC(=S)NCCCC(N)C(=O)O (stereo not drawn)  normalized growth             1.03

Write down normalized growth measured for item `O=c1c(O)c(-c2cc(O)c(O)c(O)c2)oc2cc(O)cc(O)c12`
0.999

Write down normalized growth measured for item `N[C@H](C(=O)O)c1cc(O)cc(O)c1`
1.02

Write down normalized growth measured for item CC(=O)OC(C)C[N+](C)(C)C (stereo not drawn)
1.01

Write down normalized growth measured for item CCCC(C)(COC(N)=O)COC(=O)NC(C)C (stereo not drawn)
0.988

Write down normalized growth measured for item `CC(C)C[C@H](N)CSSC[C@@H](N)CC(C)C`
1.01

Write down normalized growth measured for item `O=C1CCC(c2ccc(-n3ccnc3)cc2)=NN1`
0.987

Write down normalized growth measured for item `CCCn1c(=O)c2[nH]c(C3CCCC3)nc2n(CCCOC(=O)c2ccc(S(=O)(=O)F)cc2)c1=O`
1.01

Write down normalized growth measured for item `Cc1cn([C@H]2C=C[C@@H](CO)O2)c(=O)[nH]c1=O`
0.993

Write down normalized growth measured for item `COc1cc(OC)c(/C=C2/C(=O)Nc3ccccc32)c(OC)c1`
0.972

Write down normalized growth measured for item `N[C@@H](COP(=O)(O)O)C(=O)O`
1.01

Write down normalized growth measured for item `O=C(O)Cc1cnc[nH]1`
1

Write down normalized growth measured for item CCCCCCCCCCCCCCCCCC(=O)OC(CC(=O)O)C[N+](C)(C)C (stereo not drawn)
0.249

* * *

# PROCEDURE SUMMARY: chemical genetic growth profiling, strain panel (AID 1159580);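 further: tested at 20 µM; growth read once vehicle control cultures reached saturation at 30 °C; 1 = growth at the plate median or of vehicle wells; lower values mean less growth of the strain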
# MEASUREMENT CONDITIONS: S. cerevisiae deletion strains, growth OD, locus YPL256C, strain CLN2
The campaign covered roughly 5,500 compounds. About 2,000 (36%) were called active. Another 18% or so got no clear call; they are omitted. Rule as the data show it: active = normalized growth mostly below about 0.91 (no sharp cut-off); inconclusive = no clear call, values can overlap the other calls; inactive = mostly above about 0.92. The list shows a part of the results.
Pick one: y = active, n = inactive

Would you please look over these solved cases?
COMPOUND	LABEL
C[C@H]1O[C@H](OC2[C@@H](O)[C@@H](O)C(O)[C@H](O)[C@H]2O)[C@@H](N)C[C@@H]1N=C(N)C(=O)O (some centres undefined)	n
O=C(O[C@@H]1Cc2c(O)cc(O)cc2O[C@@H]1c1cc(O)c(=O)c2c(O)c(O)cc([C@H]3Oc4cc(O)cc(O)c4C[C@H]3OC(=O)c3cc(O)c(O)c(O)c3)c2c1)c1cc(O)c(O)c(O)c1	n
O=C1C(Cl)=C(Oc2cc(Cl)c(Cl)cc2Cl)C(=O)c2ccccc21	y

// param item: `COc1ccc(-c2oc3c(CC=C(C)C)c(O[C@@H]4O[C@H](CO)[C@@H](O)[C@H](O)[C@H]4O)cc(O)c3c(=O)c2O[C@@H]2O[C@@H](C)[C@H](O)[C@@H](O)[C@H]2O)cc1` ; yields the recorded call
n
